Sourced from the DeepSol protein solubility set

assay: soluble on expression in E. coli; label from the status in PepcDB or PDB records
observable: soluble on expression in E. coli

// solved cases for soluble on expression in E. coli follow
GPGSMNRDPDNGLWYATLRGRTLLGEEVQLPESGIVGMTTVTTSKPSCSPFPTPASLSTFPPQIAEVGELEMVDEVFIEACAPRYVVWDHGRAPSPAASLLQWMMLAEVLHGPSKWAQGEGDTSL : not soluble
MGSDKIHHHHHHMKKYLTLAASALLLAACSEKPGYEINGTVANTDLNGKYVYLYEYGVQDAAPMDSALVQNGTFTFKGTQSAPALRKLAFAEDVVEPKRAASGENAPFTSVFVLENGKLQAVLDEAASAVSGTPENDGLKALQAQMKTLRADLEKLSADMKSEDKEVVSAAEKKYDEIDQKVTDAVKTYILNNTTKQSAAKLLYDFRYSLDEAAQNEIIAKADSAFKAVPNIDKLMAHLDVLKTVAVGKKFVDFEMADPNGKTHKLSEFVGNGKNIVLIDFWASWCPPCRRDMPNLVAAYKKYKNKGFEIVGISLDSKADAWAKGVKDLNITWTQLSDLQGWKNSGAQLYGVNSIPHTVLVDKDGTIIAKNLHGEEIDAKLQEILK : not soluble
MRVYKPEDVPNVQLADSTRLVTDEAGLLSNAQEEVMNGRLRAIRSSHAVEFAVVTLPSIGDAPLEDFTLKLARQWGVGNEKNNNGLLLVLVLDQRRVRFETGYGLEGYLPDGLLSRIIHDRMIPHFRSGNYAEGLSEGVLAVQQVLDGSLEHHHHHH : soluble
MTDSDNPRRVLLKLSGEAFGGGKVGIDTQVIRRIAEEIVPAVQQGVQVAIVVGGGNFFRGAELQQAGIDRSRGDYMGMLGTVMNCLALQDFLEQEGQATRVQTAITMGQVAEPYIPLKAIRHLEKGRVVIFGAGAGMPYFSTDTVSIQRSLEIHCDEVLMGKNGVDGVYTADPRKDENAKRFETLSYNRALVDNLAVMDASALSMARDNKKRIRVFGLEEPGNVTRALVGDEIGTLVSTAESRVAELEHHHHHH : soluble
MLLPWLFPQTKRNNFAAKVNSENQEKLLILRKEDASASSGQSELSLVQMGLKQVVASSFWLVFEFQHFKVGCNAARKFPVNGIANAQPQQCGTYRSHNGKLSIAIGHFCRIHQRAHTHFAIAKIAEFNPAVHCHHVVWHLFWRTHLGAIQLCV : not soluble
MGAAGDAAIGRESRELMSAANVGRTISRIAHQIIEKTALDDPVGPDAPRVVLLGIPTRGVTLANRLAGNITEYSGIHVGHGALDITLYRDDLMIKPPRPLASTSIPAGGIDDALVILVDDVLYSGRSVRSALDALRDVGRPRAVQLAVLVDRGHRELPLRADYVGKNVPTSRSESVHVRLREHDGRDGVVISRGSHHHHHH : soluble

Now, please, on to the next sequence.
# return recorded soluble on expression in E. coli for input GSHMMGAKMAESLRLTCLACGQANKVPSDRLAAGPKCGICGAGLITGKVAGIDPAILARAERDDLPLLVDFWAPWCGPCRQMAPQFQAAAATLAGQVRLAKIDTQAHPAVAGRHRIQGIPAFILFHKGRELARAAGARPASELVGFVRGKLGARA
soluble
